Tested on: CCRIS mutagenicity, Ames/micronucleus/aberration tests
assay.method.text: CCRIS mutagenicity studies
experimental.context: Test System: AMES SALMONELLA TYPHIMURIUM; Strain/Indicator: TA100; Metabolic Activation: NONE; Method: SPOT TEST
Active and inactive are the calls of the source. The rule behind the calls is not given here.
Give your call using only these classes: active, inactive

See these solved cases before continuing.
[[record]]
compound = "CC(C)(O)[C@H]1Cc2cc3ccc(=O)oc3cc2O1"
classification = "active"

[[record]]
compound = "C=CC(C)(C)c1cc2cc3c(cc2oc1=O)OC(C(C)(C)O)C3 (stereo unspecified)"
classification = "active"

[[record]]
compound = "CC(C)=CCOc1c2occc2cc2ccc(=O)oc12"
classification = "active"

[[record]]
compound = "CC1(C)O[C@H]1COc1c2ccoc2cc2oc(=O)ccc12"
classification = "inactive"

[[record]]
compound = "COP(=O)(OC)C(O)C(Cl)(Cl)Cl (stereo unspecified)"
classification = "inactive"


Next compound, please.
Problem: Fill in: this test's call for `CC1(C)C[C@H]2C=C(C=O)[C@]34C[C@]3(C(=O)O[C@@H]4O)[C@H]2C1` is ___
Result: inactive

Attribution: PubChem BioAssay AID1259407
